Biological target: CPP32 (Homo sapiens, UniProt P42574)
Sequence (P42574 29-175 limits assumed): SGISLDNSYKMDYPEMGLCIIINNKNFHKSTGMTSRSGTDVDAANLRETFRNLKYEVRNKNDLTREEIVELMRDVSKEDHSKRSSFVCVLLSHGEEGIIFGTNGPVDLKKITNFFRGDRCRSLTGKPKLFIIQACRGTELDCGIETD
Sequence (P42574 176-277 limits assumed): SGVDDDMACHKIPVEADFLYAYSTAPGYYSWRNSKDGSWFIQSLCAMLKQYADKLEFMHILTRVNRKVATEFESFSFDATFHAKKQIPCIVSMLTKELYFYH
Peptide text beside a SMILES is read from it. * marks the point of attachment. Cbz = O=C(OCc1ccccc1)*; CH2F = FC*
observed_property: Ki (nM)
Reply with just the number (in nM).

Give recorded Ki with CPP32 (Homo sapiens, UniProt P42574) for the following compound: CC(NC(=O)C(NC(=O)OCc1ccccc1)C(C)C)C(=O)NC(CC(=O)O)C(=O)CF (stereo not drawn) [reference, Cbz-ValAlaAsp-CH2F] (Cbz-Val-Ala-Asp-CH2F; configuration not given here)
820
